# Target Or Test System: CYP3A4 (Homo sapiens, UniProt P08684)
# Sequence (P08684 whole entry): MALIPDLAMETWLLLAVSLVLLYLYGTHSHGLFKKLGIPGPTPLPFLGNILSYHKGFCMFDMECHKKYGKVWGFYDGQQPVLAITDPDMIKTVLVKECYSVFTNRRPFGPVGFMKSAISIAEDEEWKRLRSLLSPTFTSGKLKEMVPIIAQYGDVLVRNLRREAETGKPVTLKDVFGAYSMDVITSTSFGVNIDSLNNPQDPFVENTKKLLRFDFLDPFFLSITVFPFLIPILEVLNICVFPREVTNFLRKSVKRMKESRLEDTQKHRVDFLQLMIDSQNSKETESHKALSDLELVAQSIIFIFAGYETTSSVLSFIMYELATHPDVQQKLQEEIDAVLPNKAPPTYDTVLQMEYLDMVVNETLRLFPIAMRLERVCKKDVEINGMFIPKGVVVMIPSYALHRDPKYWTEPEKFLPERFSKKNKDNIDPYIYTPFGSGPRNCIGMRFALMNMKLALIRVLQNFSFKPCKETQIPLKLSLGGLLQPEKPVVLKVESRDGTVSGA
# Protocol Notes: Determination of compound Kiapp against recombinant CYP3A4 enzyme (BFC fluorescent substrate)
# Format: biochemical
# Experimental Setup: Baculo. enzyme preparation, read-out: Kiapp (BFC, Baculo.)
# log10 of Ki per entry
Recorded Metric: log10 of Ki (log10 of the value in nM)

Compound: CCCCCN(C)C(=O)c1ccccc1S(=O)(=O)Nc1cnccc1OCC
log10 of Ki: 1.83

Compound: CN(CC1CCCC1)C(=O)c1ccccc1S(=O)(=O)Nc1cccnc1
log10 of Ki: 1.93

Compound: Cc1ccccc1CCNC(=O)c1ccccc1S(=O)(=O)Nc1cnccc1C
log10 of Ki: 1.85

Compound: COc1cncc(NS(=O)(=O)c2ccccc2C(=O)NCCOc2ccccc2)c1
log10 of Ki: 2.36

Compound: Cc1cncc(NS(=O)(=O)c2ccccc2C(=O)NCc2cc(Cl)cc(Cl)c2)c1
log10 of Ki: 0.45

Compound: COCCN(C(=O)c1ccccc1S(=O)(=O)Nc1cccnc1)C(C)C
log10 of Ki: 2.65

Compound: CCOc1ccncc1NS(=O)(=O)c1ccccc1C(=O)NCCC(C)C
log10 of Ki: 2.07

Compound: Cc1cncc(NS(=O)(=O)c2ccccc2C(=O)NCc2ccc(F)c(C(F)(F)F)c2)c1
log10 of Ki: 0.92

Compound: Cc1cncc(NS(=O)(=O)c2ccccc2C(=O)N2CC(C)CC(C)C2)c1 (stereo not drawn)
log10 of Ki: 1.84

Compound: CN(c1cccnc1)S(=O)(=O)c1ccccc1C(=O)NCC(C)(C)C
log10 of Ki: 2.77

Compound: COc1ccc(CNC(=O)c2ccccc2S(=O)(=O)Nc2cccnc2)cc1
log10 of Ki: 2.55

Cited source: patent US7868026B2
